tested on: B16-F1; assay: SRB antiproliferation assay, B16-F1 melanoma; format: cell-based, mouse; settings: Mus musculus, B16-F1, SRB; read-out: IC50 B16-F1 (converted)
assay_metric: IC50 (µM)

(a) COc1cc(C(=O)c2csc(-c3ccc([N+](=O)[O-])cc3)n2)cc(OC)c1OC [8p]
(b) COc1ccc(-c2nc(C(=O)c3cc(OC)c(OC)c(OC)c3)cs2)cc1OC [8o]
From the recorded data, which exceeds the other in IC50: a or b ? Refer to your chosen entry by its label in the reply.
b

(P) COc1cc(C(=O)c2csc(-c3ccc(C(F)(F)F)cc3)n2)cc(OC)c1OC [8t]
(Q) Cc1ccc(-c2nc(C(=O)c3ccc(F)cc3)cs2)cc1 [11-11]
From the recorded data, which exceeds the other in IC50: P or Q ? Refer to your chosen entry by its label in the reply.
Q

---

tested on: B16-F1; assay: SRB antiproliferation assay, B16-F1 melanoma; assay type: cell-based, mouse; conditions: Mus musculus, B16-F1, SRB; read-out: IC50 B16-F1 (converted)
assay_metric: IC50 (nM)

In the examples that follow, each entry is paired with its recorded IC50.
O=C(c1csc(-c2ccccc2)n1)c1c(F)c(F)c(F)c(F)c1F | 9800
COc1cc(C(=O)c2csc(-c3cccc(F)c3)n2)cc(OC)c1OC | 287
COc1cc(C(=O)c2c[nH]c(-c3cn(S(=O)(=O)c4ccccc4)c4ccccc34)n2)cc(OC)c1OC | 539

(a) COc1cc(C(=O)c2csc(-c3ccc(C#N)cc3)n2)cc(OC)c1OC
(b) COc1cc(C(=O)c2csc(-c3ncccn3)n2)cc(OC)c1OC
From the recorded data, which exceeds the other in IC50: a or b ? Refer to your chosen entry by its label in the reply.
b

---

Tested on: A375
Experiment: SRB antiproliferation assay, A375 melanoma
Type: cell-based, human
Details: Homo sapiens, A-375, SRB; read-out: IC50 A375 (converted)
Excerpt: For melanoma assays, one human melanoma cell line (A375) and one mouse melanoma cell line (B16-F1) were used. […] Fibroblast cells were used as a control to determine the selectivity of these compounds against melanoma. Human dermal fibroblast cells were purchased from Cascade Biologics, Inc., Portland, Oreg., USA.
assay_metric: IC50 (µM)

(I) COc1cc(C(=O)c2csc(-c3cccc(F)c3)n2)cc(OC)c1OC
(II) COc1ccc(-c2nc(C(=O)c3cc(OC)c(OC)c(OC)c3)cs2)cc1OC
(III) O=C(c1csc(-c2cc(F)c(F)c(F)c2)n1)c1c(F)c(F)c(F)c(F)c1F
Order the entries above from lowest to highest IC50. # output: labels, in the requested order
II, I, III

---

tested on: PC-3; test: SRB antiproliferation assay, PC-3 prostate cancer; conditions: read-out: IC50 PC-3; SRB
assay_metric: IC50 (nM)

COc1cc(C(=O)c2csc(-c3ccc(Br)cc3)n2)cc(OC)c1OC [8u] | 18
COc1ccc(-c2nc(C(=O)c3cc(OC)c(OC)c(OC)c3)cs2)cc1OC [8o] | 69
COc1cc(C(=O)c2csc(-c3ccc(C(F)(F)F)cc3)n2)cc(OC)c1OC [8t] | 58

(P) COc1cc(C(=O)c2csc(-c3cccc(F)c3)n2)cc(OC)c1OC [8m]
(Q) COc1cc(C(=O)c2csc(-c3ccc(C)cc3)n2)cc(OC)c1OC [8k]
From the recorded data, which exceeds the other in IC50: P or Q ? Refer to your chosen entry by its label in the reply.
P

---

system: PPC-1; test: SRB antiproliferation assay, PPC-1 prostate cancer; details: read-out: Cytotoxicity IC50 mean ± SD, PPC-1; 96 h treatment, N = 3
assay_metric: pIC50
pIC50 here: minus log base 10 of the concentration, concentration in moles per litre.

What reported pIC50 corresponds to COc1cc(C(=O)c2csc(Nc3ccc4[nH]ccc4c3)n2)cc(OC)c1OC on PPC-1?
7.44

---

test system: B16-F1; test: SRB antiproliferation assay, B16-F1 melanoma; format: cell-based, mouse; settings: Mus musculus, B16-F1, SRB; read-out: IC50 B16-F1 (converted)
assay_metric: IC50 (nM)

COc1cc(C(=O)c2csc(-c3ccccc3F)n2)cc(OC)c1OC | 27

(1) O=C(c1csc(-c2cc(F)c(F)c(F)c2)n1)c1c(F)c(F)c(F)c(F)c1F
(2) COc1cc(C(=O)c2csc(-c3ccc4[nH]ccc4c3)n2)cc(OC)c1OC
(3) COc1cc(C(=O)c2csc(-c3ccc(Br)cc3)n2)cc(OC)c1OC
(4) CCc1ccc(-c2nc(C(=O)c3cc(OC)c(OC)c(OC)c3)cs2)cc1
Order each entry by recorded IC50, climbing from the minimum. # output: labels, in the requested order
2, 3, 4, 1
(2: 8.3 nM, 3: 32 nM, 4: 70 nM, 1: 6900 nM)

---

system: PC-3; assay: SRB antiproliferation assay, PC-3 prostate cancer; settings: read-out: IC50 PC-3; SRB
pIC50: −log10 of the molar value.
assay_metric: pIC50

COc1cc(C(=O)c2csc(-c3ccc([N+](=O)[O-])cc3)n2)cc(OC)c1OC | 7.25

(A) CCc1ccc(-c2nc(C(=O)c3cc(OC)c(OC)c(OC)c3)cs2)cc1
(B) COc1cc(C(=O)c2csc(-c3ccc4[nH]ccc4c3)n2)cc(OC)c1OC
From the recorded data, which exceeds the other in pIC50: A or B ? Refer to your chosen entry by its label in the reply.
B
(B: 8.12, A: 7.57)

(P) COc1cc(C(=O)c2csc(-c3ccc(C#N)cc3)n2)cc(OC)c1OC
(Q) COc1cc(C(=O)c2c[nH]c(-c3cn(S(=O)(=O)c4ccccc4)c4ccccc34)n2)cc(OC)c1OC
(R) COc1cc(C(=O)c2csc(-c3ncccn3)n2)cc(OC)c1OC
Returns the items ordered by pIC50, from maximum to minimum. # output: labels, in the requested order
P, Q, R

---

test system: PC-3; assay: SRB antiproliferation assay, PC-3 prostate cancer; details: read-out: IC50 PC-3; SRB, 96 h; listed as 4b(4S)
assay_metric: pIC50
pIC50 here: minus log base 10 of the concentration, concentration in moles per litre.

Please look up its pIC50: COc1cc(NC(=O)[C@@H]2CSC(c3ccccc3)=N2)cc(OC)c1OC
4.88

---

Reported melting point values follow for various compounds

In the examples that follow, each entry is paired with its recorded melting point.
COc1cc(C(=O)c2csc(-c3ccc(C(=O)O)cc3)n2)cc(OC)c1OC | > 220 °C (dec.)
COc1cccc(C(=O)c2csc(-c3ccccc3)n2)c1 | 43 to 44 °C
COc1cc(OC)cc(C(=O)c2csc(-c3ccccc3)n2)c1 | 84 to 85 °C
COc1cc(C(=O)c2csc(-c3ccccc3F)n2)cc(OC)c1OC | 90 to 102 °C
COc1cc(C(=O)c2csc(-c3ncccn3)n2)cc(OC)c1OC | 190 to 191 °C
COc1ccc(C(=O)c2csc(-c3ccccc3)n2)cc1OC | 89 to 91 °C

Please look up its melting point: COc1cc(C(=O)c2csc(-c3ccncc3)n2)cc(OC)c1OC
178 to 180 °C

Please look up its melting point: COc1cc(NC(=O)[C@@H]2CSC(c3cc(OC)c(OC)c(OC)c3)N2)cc(OC)c1OC (mixture of isomers)
147 to 149 °C

Please look up its melting point: COc1cc(/C(=N/O)c2csc(-c3ccccc3)n2)cc(OC)c1OC
150 to 153 °C

Please look up its melting point: COc1cc(/C(=N\N)c2csc(-c3ccccc3)n2)cc(OC)c1OC
65 to 66 °C

Please look up its melting point: O=C(c1ccccn1)c1csc(-c2ccccc2)n1
95 to 97 °C

Please look up its melting point: CCCCCCCCCCCCCCCCC(=O)c1csc(-c2ccccc2)n1
63 to 64 °C

Please look up its melting point: COc1cc(NC(=O)c2csc(-c3ccccc3)n2)cc(OC)c1OC
157 to 158 °C

Please look up its melting point: O=C(c1ccccc1)c1csc(-c2ccccc2)n1
65 to 66 °C

Please look up its melting point: COc1cc(/C(=N/N)c2csc(-c3ccccc3)n2)cc(OC)c1OC
117 to 119 °C

Please look up its melting point: COc1cc(C(=O)c2cscn2)cc(OC)c1OC
106 to 108 °C

Please look up its melting point: O=C(c1csc(-c2ccccc2)n1)c1ccccc1F
77 to 79 °C

---

Reported melting point values follow for various molecules

In the examples that follow, each entry is paired with its recorded melting point.
COc1cc(/C(=N\O)c2csc(-c3ccccc3)n2)cc(OC)c1OC | 176 to 177 °C
COc1cc(C(=O)c2csc(-c3ccc(C)cc3)n2)cc(OC)c1OC | 116 to 119 °C
COc1cc(NC(=O)[C@@H]2CSC(c3ccccc3)N2)cc(OC)c1OC (mixture of isomers) | 158 to 159 °C

Please look up its melting point: COc1ccc(C(=O)c2csc(-c3ccccc3)n2)cc1
105 to 106 °C

Please look up its melting point: COC(=O)c1ccc(-c2nc(C(=O)c3cc(OC)c(OC)c(OC)c3)cs2)cc1
172 to 174 °C

// provenance: patent US10865196B2
